I'd be grateful if you could share measured T/C for these entries.
test system: CD2F1 mice, L1210 leukemia ip, survival T/C; assay: NCI In Vivo Anticancer Drug Screen. Data for tumor model L1210 Leukemia (intraperitoneal) in CD2F1 (CDF1) mice; settings: endpoint: mean survival time; dose: 200.0 mg/kg/injection; schedule: Q04DX003 (ip); vehicle: saline sonified; higher = longer survival
Inconclusive results and toxic doses are left out.

See these solved cases before continuing.
{"compound": "COC(OC)c1[nH]c(=S)[nH]c(=O)c1Cc1cccc(Cl)c1", "T/C": "101 % of control"}
{"compound": "COc1cc2cc3c4cc(OC)c(OC)cc4cc[n+]3c(C)c2cc1OC", "T/C": "114 % of control"}
{"compound": "O=S(=O)(O)C(O)c1cccnc1 (stereo unspecified)", "T/C": "105 % of control"}
{"compound": "FCCc1cccc(C(F)(F)F)c1", "T/C": "98 % of control"}
{"compound": "CCOC(=O)/C(=C/C(C#N)=C/N(C)C)CC", "T/C": "108 % of control"}

Query compound follows.
[ask] Look up T/C: CC1(C)N=C(N)N=C(N)N1c1cccc(CCCCc2ccc(Cl)c(S(=O)(=O)F)c2)c1
[reply] 86 % of control
